Value source: ChEMBL document CHEMBL3988442

Experiment: microbe, parasite or virus in culture
Settings: Mycobacterium tuberculosis, 72 h, read-out: pIC50 (converted)
TEST READOUT: IC50

Below is a list of compounds. For each, state its recorded IC50.
1. CSc1nnc(CN(C)CCO)s1
2. Cn1ncc2c(N3CCCN4CCC[C@H]4C3)nc(C(C)(C)C)nc21
3. CCc1noc(Cn2cnc3ccccc3c2=O)n1

> 501 µM
> 50.1 µM
> 501 µM

Below is a list of compounds. For each, state its recorded IC50.
1. O=C(c1ccc(F)cc1)N1C[C@H]2CCC[C@@]2(COCc2ccncc2)C1
2. Cc1nnc(SCCC(=O)N(C)Cc2ccc(Cl)s2)[nH]1
3. CC(Cn1cccn1)NS(=O)(=O)Cc1ccccc1 (centres undefined)
4. CC(=O)NCc1ccc(C(=O)NC2CCc3nc(C)cn3C2)o1 (centres undefined)
5. CC(C)Oc1cccc(CN(C)C(=O)Cc2ccon2)c1

1: > 50.1 µM; 2: > 50.1 µM; 3: > 50.1 µM; 4: > 50.1 µM; 5: > 50.1 µM

Below is a list of compounds. For each, state its recorded IC50.
1. CC(=O)NCC(Cc1cccc(F)c1)n1cccc1 (centres undefined)
2. COc1coc(CN2CCCC(CCc3ccc(F)c(F)c3)C2)cc1=O (centres undefined)

["> 50.1 µM", "> 50.1 µM"]

* * *

System: Plasmodium falciparum
Test: Calibr Malaria Delayed Death Assay SOP
Assay type: functional, organism-based
Details: Plasmodium falciparum
TEST READOUT: IC50

INSERT INTO assay_data (compound, test_readout, recorded_value) VALUES
  ('COc1cccc(-n2ccc3nc(N4CCCC4)ncc3c2=O)c1', 'IC50', '1470 nM'),
  ('c1ccc(-c2nc3c(c(NCc4n[nH]c5c4CCC5)n2)CCNC3)cc1', 'IC50', '902 nM'),
  ('c1cnnc(N2CCCC2CNc2ncnc3sccc23)c1 (stereo not drawn)', 'IC50', '1260 nM'),
  ('OC1(CN2CCC(Oc3cccc(C(F)(F)F)c3)CC2)CCNC1 (stereo not drawn)', 'IC50', '690 nM'),
  ('O=C(C1CNCCO1)N1CCCC(c2ccccc2)(c2ccccc2)C1 (stereo not drawn)', 'IC50', '975 nM'),
  ('CCN(CC)CCN(C)c1nc(-c2ccc(Cl)cc2)nc2c1CNC2', 'IC50', '1020 nM'),
  ('Cc1cnn(CCCNCc2csc(COc3ccccc3)n2)c1', 'IC50', '828 nM'),
  ('c1cc(N2CCC(CN3CCOCC3)CC2)c2sccc2n1', 'IC50', '867 nM');

Below is a list of compounds. For each, state its recorded IC50.
1. Cc1ccc2c(c1)CN(C(=O)C1CCCCC1)C(CN(C)C)CO2.Cl (stereo not drawn)
2. CC(C)(NCc1cccc(O)c1)c1ccc2c(c1)OCO2
3. CCC1CN(CC(=O)NCCN2CCCCCC2)c2ccccc2S1 (stereo not drawn)

["880 nM", "894 nM", "1330 nM"]

Below is a list of compounds. For each, state its recorded IC50.
1. CCOC(=O)N1CCN(c2nc(CCN)nc3sc(C)c(C)c23)CC1
2. Cc1cccc(CN2CCCC2c2cccc(Nc3nccs3)n2)c1 (stereo not drawn)
3. Cc1ccc(C(C)NCCc2nccn2Cc2ccccc2)o1 (stereo not drawn)
4. CCc1[nH]c2c(CNc3cc(C)nc(NC)n3)cc(C)cc2c1C
5. CC(C)(C)c1nccc(C2(c3ccccc3Cl)CCNCC2)n1
6. c1ccc(C2CN(C3CC3)CC3(CCN(Cc4cscn4)CC3)C2)cc1 (stereo not drawn)

1: 1120 nM; 2: 1010 nM; 3: 1260 nM; 4: 750 nM; 5: 667 nM; 6: 969 nM

Record request: IC50 value, item "O=S(=O)(NC[C@H]1C[C@@H]2CCN1C[C@@H]2CN1CCCC1)c1ccc(Cl)cc1"
1130 nM

* * *

Consider the following molecules; for each one, report its IC50.
Experiment: microbe, parasite or virus in culture
Settings: Mycobacterium tuberculosis, 72 h, read-out: pIC50 (converted)

Answered examples (3):
INSERT INTO measurements (molecule, test_readout, recorded_value) VALUES
  ('CN(C)CCNC(=O)c1ccn(-c2ccc3ccccn23)n1', 'IC50', '> 50.1 µM'),
  ('O=C1N(Cc2ccc(F)cc2)CCCC12CCN(C1CCSCC1)C2 (centres undefined)', 'IC50', '> 50.1 µM'),
  ('CSCCC(=O)NCc1ccc(C)s1', 'IC50', '> 501 µM');

Record request: IC50 value, item "OCCOCCSc1n[nH]c(-c2cc(F)cc(F)c2)n1"
> 501 µM
